- Test system: B6C3F1 mice, B16 melanoma ip, median survival T/C
- Protocol summary: NCI In Vivo Anticancer Drug Screen. Data for tumor model B16 Melanoma (intraperitoneal) in B6C3F1 mice
- Condition info: endpoint: median survival time; dose: 200.0 mg/kg/injection; schedule: Q01DX009 (ip); vehicle: Klucel (hydroxypropylcellulose) (HPC)
Inconclusive results and toxic doses are left out. How the source made its calls: active means survival T/C of 150% or more; inactive means T/C below 125% in these data.
Please state which outcome applies, choosing from active, inactive

Here's what some known entries look like.
Molecule	Assigned category
O=C(Cl)c1ccccc1S(=O)(=O)N(CCOc1ccccc1)c1ccccc1	inactive
Cc1c(-c2ccc(C3CCCCC3)cc2)nc2ccc(F)cc2c1C(=O)O	active
O=C1N[C@H]2[C@H](CS[C@H]2CCCCC(=O)N(CCP(c2ccccc2)c2ccccc2)CCP(c2ccccc2)c2ccccc2)N1	inactive
NC(=O)CCC(NC(=O)OCC1c2ccccc2-c2ccccc21)C(=O)O (stereo not given)	inactive
O=c1[nH]cnc2c1cnn2CN1CCOCC1	inactive

Returns: the outcome recorded for O=C(NNC(=O)c1cccc(C(=O)NNC(=O)c2ccc(Cl)c(Cl)c2)n1)c1ccc(Cl)c(Cl)c1 in this assay.
inactive

Hi, sorry to bother you, what did the test record for O=S(=O)(SC(S(=O)(=O)c1ccccc1)S(=O)(=O)c1ccccc1)c1ccccc1 ?
inactive
